- assay info: Drug level in Sprague-Dawley rat at 5 mg/kg, iv measured after 72 hrs post dose by LC-MS/MS analysis
- Assay type: ADME, organism-based
- test settings: in vivo, read-out: Drug uptake
result type: concentration at 72 h (ng/mL)
Number only, in ng/mL; omit the unit.

Task: Query: concentration at 72 h; subject: CN(C)CCN(C)c1ccc(C#N)c(CN2CCN(c3ccc(Cl)cc3)CC2)c1
Output: 9.2

====

- assay info: Tmax in beagle dog at 15 mg/kg, po measured after 0.08 to 72 hrs post dose by LC-MS/MS analysis
- Assay type: ADME, organism-based, Canis lupus familiaris
- test settings: in vivo
result type: Tmax (h)
Number only, in h; omit the unit.

Task: Query: Tmax; subject: CN(C)CCN(C)c1ccc(C#N)c(CN2CCN(c3ccc(Cl)cc3)CC2)c1
Output: 3

====

- assay info: Clearance in beagle dog at 5 mg/kg, iv measured after 0.08 to 72 hrs post dose by LC-MS/MS analysis
- Assay type: ADME, organism-based, Canis lupus familiaris
- test settings: in vivo
result type: clearance (L/h/kg)
Number only, in L/h/kg; omit the unit.

Task: Query: clearance; subject: CN(C)CCN(C)c1ccc(C#N)c(CN2CCN(c3ccc(Cl)cc3)CC2)c1
Output: 4.75

====

- assay info: Clearance in Sprague-Dawley rat at 15 mg/kg, po measured after 0.08 to 72 hrs post dose by LC-MS/MS analysis
- Format: ADME, organism-based
- test settings: in vivo
result type: CL/F (mL/min/kg)
Number only, in mL/min/kg; omit the unit.

Task: Query: CL/F; subject: CN(C)CCN(C)c1ccc(C#N)c(CN2CCN(c3ccc(Cl)cc3)CC2)c1
Output: 37.4

====

- assay info: Drug level in beagle dog at 15 mg/kg, po measured after 72 hrs post dose by LC-MS/MS analysis
- Assay type: ADME, organism-based, Canis lupus familiaris
- test settings: in vivo, read-out: Drug uptake
result type: concentration at 72 h (ng/mL)
Number only, in ng/mL; omit the unit.

Task: Query: concentration at 72 h; subject: CN(C)CCN(C)c1ccc(C#N)c(CN2CCN(c3ccc(Cl)cc3)CC2)c1
Output: 0.69

====

- assay info: Clearance in Sprague-Dawley rat at 5 mg/kg, iv measured after 0.08 to 72 hrs post dose by LC-MS/MS analysis
- Format: ADME, organism-based
- test settings: in vivo
result type: clearance (mL/min/kg)
Number only, in mL/min/kg; omit the unit.

Task: Query: clearance; subject: CN(C)CCN(C)c1ccc(C#N)c(CN2CCN(c3ccc(Cl)cc3)CC2)c1
Output: 18.1

====

- assay info: Drug level in beagle dog at 5 mg/kg, iv measured after 24 hrs post dose by LC-MS/MS analysis
- Assay type: ADME, organism-based, Canis lupus familiaris
- test settings: in vivo, read-out: Drug uptake
result type: concentration at 24 h
Number first, unit second.

Task: Query: concentration at 24 h; subject: CN(C)CCN(C)c1ccc(C#N)c(CN2CCN(c3ccc(Cl)cc3)CC2)c1
Output: 6.16 ng/mL

====

Below, each entry is listed alongside its reported selectivity ratio.
- assay info: Selectivity index, ratio of CC50 for cytotoxicity in human Huh7.5 cells assessed as reduction in cell viability incubated for 96 hrs by MTT assay to EC50 for antiviral activity against HCV J6/JFH/JC1 infected in human Huh7.5 cells incubated for 72 hrs by In-Cell Western assay
- Assay type: toxicity, cell-based
- test settings: read-out: Ratio CC50/EC50

These recorded examples may help you get a feel for the data.
Task: Query: selectivity ratio; subject: Cc1ccc(N2CCN(Cc3cc(N(C)CCN(C)C)ccc3C#N)CC2)cc1
Output: 90

Task: Likewise for Cc1cc(Cl)ccc1N1CCN(Cc2cc(N(C)CCN(C)C)ccc2C#N)CC1 ?
Output: 49

Task: Likewise for N#Cc1ccc(N2CCNC(=O)C2)cc1CN1CCN(c2ccc(Cl)cc2)CC1 ?
Output: > 2

Next:
Task: Query: selectivity ratio; subject: CN(C)CCN(C)c1ccc(C#N)c(CN2CCN(c3ccccc3)CC2)c1
Output: 55

====

- assay info: Cytotoxicity in human Huh7.5 cells assessed as reduction in cell viability incubated for 96 hrs by MTT assay
- Type: cell-based
result type: CC50 at 96 h

These recorded examples may help you get a feel for the data.
Task: Query: CC50 at 96 h; subject: CN(C)c1ccc(C#N)c(CN2CCN(c3ccc(Cl)cc3)CC2)c1
Output: > 200 µM

Task: Likewise for CN(C)CCN(C)c1ccc(C#N)c(CN2CCN(c3ccc(Cl)cc3)CC2)c1 ?
Output: 12.8 to 14.8 µM

Next:
Task: Query: CC50 at 96 h; subject: N#Cc1ccc(N2CCNC(=O)C2)cc1CN1CCN(c2ccc(Cl)cc2)CC1
Output: > 200 µM

====

Below, each entry is listed alongside its reported CC50 at 96 h.
- assay info: Cytotoxicity in human Huh7.5 cells assessed as reduction in cell viability incubated for 96 hrs by MTT assay
- Type: cell-based
Number only, in µM; omit the unit.

Task: Query: CC50 at 96 h; subject: Cc1ccc(NCc2cc(N3CCNCC3)ccc2C#N)cc1
Output: 18.8

Task: Likewise for CN(C)CCN(C)c1ccc(C#N)c(CN2CCN(c3ccc(Cl)nc3)CC2)c1 ?
Output: 52.6

Task: Likewise for Cc1ccc(N(C)Cc2cc(N3CCN(C)CC3)ccc2C#N)cc1 ?
Output: 82

Next:
Task: Query: CC50 at 96 h; subject: CN(C)CCCN(C)c1ccc(C#N)c(CN2CCN(c3ccc(Cl)cc3)CC2)c1
Output: 15.6

Task: Likewise for N#Cc1ccc(NCCN2CCOCC2)cc1CN1CCN(c2ccc(Cl)cc2)CC1 ?
Output: 76.3

Task: Likewise for CN(C)CCN(C)c1ccc(C#N)c(CN2CCN(c3ccc(N)cc3)CC2)c1 ?
Output: 55.2

Task: Likewise for CN(C)CCN(C)c1ccc(C#N)c(CN2CCN(c3ccc(F)cc3)CC2)c1 ?
Output: 52.1

Task: Likewise for CN(C)CCN(C)c1ccc(C#N)c(CN2CCN(c3ccccc3)CC2)c1 ?
Output: 50.2

Task: Likewise for CN1CCN(c2ccc(C#N)c(CN3CCN(c4ccc(Cl)cc4)CC3)c2)CC1 ?
Output: 16.1

====

- assay info: Cytotoxicity in human Huh7.5 cells assessed as reduction in cell viability incubated for 96 hrs by MTT assay
- Type: cell-based
result type: CC50 at 96 h (µM)
Number only, in µM; omit the unit.

These recorded examples may help you get a feel for the data.
Task: Query: CC50 at 96 h; subject: N#Cc1ccc(N2CCC(N3CCCC3)CC2)cc1CN1CCN(c2ccc(Cl)cc2)CC1
Output: 13.5

Task: Likewise for CN(C)CCNc1ccc(C#N)c(CN2CCN(c3ccc(Cl)cc3)CC2)c1 ?
Output: 14.8

Task: Likewise for CN(C)CCN(C)c1ccc(C(N)=O)c(CN2CCN(c3ccc(Cl)cc3)CC2)c1 ?
Output: 15.5

Task: Likewise for CCC[C@H](NC(=O)[C@@H]1[C@H]2CCC[C@H]2CN1C(=O)[C@@H](NC(=O)[C@@H](NC(=O)c1cnccn1)C1CCCCC1)C(C)(C)C)C(=O)C(=O)NC1CC1 ?
Output: 55

Task: Likewise for N#Cc1ccc(N2CCNCC2)cc1CN1CCN(c2ccc(Cl)cc2)CC1 ?
Output: 13.7

Task: Likewise for N#Cc1ccc(OCCN2CCCC2)cc1CN1CCN(c2ccc(Cl)cc2)CC1 ?
Output: 16.6

Now for the compound whose CC50 at 96 h we want.
Task: Query: CC50 at 96 h; subject: Cc1ccc(NCc2cc(N3CCOCC3)ccc2C#N)cc1
Output: 133

The values you see were collected from ChEMBL document CHEMBL4613269.
